Test system: BV-2
experimental protocol: Cytotoxicity against mouse BV2 cells assessed as cell survival by MTT assay
Assay type: cell-based
recorded metric: Activity

Below, each entry is followed by its recorded Activity result.
**Q:** Requested read-out Activity, target or system BV-2, entry `CC1=C2C[C@H]([C@@](C)(O)CO)CC[C@@]2(C)[C@H](O)CC1=O`
**A:** Non-Toxic

**Q:** Consider next the compound `CC(C)(O)c1ccc(CO)c(O)c1` in the same way.
**A:** Non-Toxic

**Q:** Consider next the compound `CC(C)(O)c1ccc(CO)c(O[C@@H]2O[C@H](CO)[C@@H](O)[C@H](O)[C@H]2O)c1` in the same way.
**A:** Non-Toxic

**Q:** Consider next the compound `Cc1ccc([C@@H](C)CO)cc1O` in the same way.
**A:** Non-Toxic

--- query ---
**Q:** Requested read-out Activity, target or system BV-2, entry `CSC(=N)N.O=S(=O)(O)O`
**A:** Non-Toxic

----------
Tested on: BV-2
experimental protocol: Inhibition of LPS-induced NO production in mouse BV2 cells after 20 hrs by Griess assay
Type: functional, cell-based
condition: BV-2, 20 h
Listed below: IC50 values for each entry.
Number only, in µM; omit the unit.

**Q:** What does the record list as IC50 for `Cc1ccc([C@@H](C)CO)cc1O` ?
**A:** 17.8

**Q:** Consider next the compound `CC(C)(O)c1ccc(CO)c(O[C@@H]2O[C@H](CO)[C@@H](O)[C@H](O)[C@H]2O)c1` in the same way.
**A:** 14.1

**Q:** Consider next the compound `CC1=C2C[C@H]([C@@](C)(O)CO)CC[C@@]2(C)[C@H](O)CC1=O` in the same way.
**A:** 6.8

**Q:** Consider next the compound `CC(C)(O)c1ccc(CO)c(O)c1` in the same way.
**A:** 15.2

**Q:** Consider next the compound `CSC(=N)N.O=S(=O)(O)O` in the same way.
**A:** 2.5
